# Tested on: guinea-pig urinary bladder (GPB) cells
# measurement notes: Membrane hyperpolarization (MHP) assay, DiBAC(4)3 dye, FLIPR
# Type: cell-based
# particulars: Cavia porcellus; membrane hyperpolarization in GPB cells; concentration eliciting 50% of the maximal response of the test sample
One threshold, 700 nM, splits the recorded EC50 values: lower ones are yes, equal or higher ones are no.

[
  {
    "compound": "CC(C)(C)n1[nH]c(=O)c2c1NC1=C(C(=O)CC1)C2c1ccc(F)c(Br)c1 (centres unmarked)",
    "cat": "no"
  },
  {
    "compound": "Cc1ccc(C2C3=C(CCC3=O)Nc3c2c(=O)[nH]n3C)cc1I (centres unmarked)",
    "cat": "yes"
  },
  {
    "compound": "O=C1CCC2=C1C(c1ccc(F)c(Br)c1)c1c([nH]n(-c3ccccc3)c1=O)N2 (centres unmarked)",
    "cat": "no"
  },
  {
    "compound": "Cn1[nH]c(=O)c2c1NC1=C(C(=O)CC1)C2c1ccc(Cl)c(Cl)c1 (centres unmarked)",
    "cat": "yes"
  },
  {
    "compound": "Cn1[nH]c(=O)c2c1NC1=C(C(=O)C(C)(C)CC1)C2c1ccc(F)c(-c2ccco2)c1 (centres unmarked)",
    "cat": "no"
  },
  {
    "compound": "O=C1CCC2=C1C(c1ccc(F)c(Br)c1)c1c(n(-c3ccccn3)[nH]c1=O)N2 (centres unmarked)",
    "cat": "no"
  },
  {
    "compound": "CCn1[nH]c(=O)c2c1NC1=C(C(=O)CC1)C2c1ccc(F)c(Br)c1 (centres unmarked)",
    "cat": "yes"
  },
  {
    "compound": "O=C1CCCC2=C1C(c1ccc(F)c(Br)c1)c1c([nH][nH]c1=O)N2 (centres unmarked)",
    "cat": "no"
  }
]

----------
# System: guinea-pig urinary bladder (GPB) cells
# measurement notes: Membrane hyperpolarization (MHP) assay, DiBAC(4)3 dye, FLIPR
# Format: cell-based
# particulars: Cavia porcellus; membrane hyperpolarization in GPB cells; concentration eliciting 50% of the maximal response of the test sample
pEC50: −log10 of the molar value.
Item-by-item account of pEC50

[
  {
    "molecule": "Cn1[nH]c(=O)c2c1NC1=C(C(=O)CC1)C2c1ccc2nsnc2c1 (stereo not shown) [Example 17]",
    "experimental target": "guinea-pig urinary bladder (GPB) cells",
    "pEC50": "< 5.00"
  },
  {
    "molecule": "Cn1[nH]c(=O)c2c1NC1=C(C(=O)CC1)C2c1ccc(F)c(-c2ccco2)c1 (stereo not shown) [Example 14]",
    "experimental target": "guinea-pig urinary bladder (GPB) cells",
    "pEC50": "< 5.00"
  },
  {
    "molecule": "Cn1[nH]c(=O)c2c1NC1=C(C2c2ccc(F)c(Br)c2)S(=O)(=O)CC1 (stereo not shown) [Example 21]",
    "experimental target": "guinea-pig urinary bladder (GPB) cells",
    "pEC50": "< 5.00"
  },
  {
    "molecule": "Cn1[nH]c2c(c1=O)C(c1ccc(F)c(Br)c1)C1=C(CCC1=O)N2 (stereo not shown) [Example 19]",
    "experimental target": "guinea-pig urinary bladder (GPB) cells",
    "pEC50": "< 5.00"
  }
]
